system: Acinetobacter baumannii; assay: Antibacterial activity against Acinetobacter baumannii ATCC 17978 at 90 uM incubated for 24 hrs by microdilution assay; type: functional, organism-based
Activity calls are given as the source filed them. The rule behind the calls is not given here.
readout-type: Activity

structure_smiles=C[C@@H]1CC[C@]2(OC1)O[C@H]1C[C@H]3[C@@H]4CC[C@H]5C[C@H](O)C[C@@H](O[C@@H]6O[C@H](C)[C@H](O)[C@H](O)[C@H]6O)[C@]5(C)[C@H]4CC[C@]3(C)[C@H]1[C@@H]2C target_entity="Acinetobacter baumannii" readout_type=Activity result=inactive
structure_smiles=C[C@@H]1CC[C@]2(OC1)O[C@H]1C[C@H]3[C@@H]4CC[C@H]5C[C@@H](O)C[C@@H](O[C@@H]6OC[C@H](O)[C@H](O)[C@H]6O)[C@]5(C)[C@H]4CC[C@]3(C)[C@H]1[C@@H]2C target_entity="Acinetobacter baumannii" readout_type=Activity result=inactive

----------
test system: Acinetobacter baumannii; assay: Bactericidal activity against Acinetobacter baumannii ATCC 19606 at 90 uM incubated for 24 hrs by microdilution assay; assay type: functional, organism-based; settings: ATCC 19606 = CIP 70.34 = JCM 6841
Calls of active or inactive are those of the source. The calls are words filed in the database; no cut-off is given here.
readout-type: Activity

structure_smiles=C=C1CC[C@]2(OC1)O[C@H]1C[C@H]3[C@@H]4CC[C@H]5C[C@@H](O)C[C@@H](O[C@@H]6OC[C@H](O)[C@H](O)[C@H]6O)[C@]5(C)[C@H]4CC[C@]3(C)[C@H]1[C@@H]2C readout_type=Activity result=inactive
structure_smiles=C[C@@H]1CC[C@]2(OC1)O[C@H]1C[C@H]3[C@@H]4CC[C@H]5[C@H](O)[C@H](O)C[C@@H](O[C@@H]6O[C@H](C)[C@H](O)[C@H](O)[C@H]6O)[C@]5(C)[C@H]4CC[C@]3(C)[C@H]1[C@@H]2C readout_type=Activity result=inactive

----------
test system: Acinetobacter baumannii; assay: Bactericidal activity against Acinetobacter baumannii ATCC 19606 at 90 uM incubated for 24 hrs by microdilution assay; format: functional, organism-based; settings: ATCC 19606 = CIP 70.34 = JCM 6841
The source made the active and inactive calls. No cut-off for these calls is given here.
readout-type: Activity

structure_smiles=C=C1CC[C@]2(OC1)O[C@H]1C[C@H]3[C@@H]4CC[C@H]5C[C@@H](O)C[C@@H](O[C@@H]6O[C@H](C)[C@H](O)[C@H](O)[C@H]6O)[C@]5(C)[C@H]4CC[C@]3(C)[C@H]1[C@@H]2C target_entity="Acinetobacter baumannii" result=inactive
structure_smiles=C[C@@H]1CC[C@]2(OC1)O[C@H]1C[C@H]3[C@@H]4CC[C@H]5[C@H](O)[C@@H](O)C[C@@H](O[C@@H]6O[C@H](C)[C@H](O)[C@H](O)[C@H]6O)[C@]5(C)[C@H]4CC[C@]3(C)[C@H]1[C@@H]2C target_entity="Acinetobacter baumannii" result=inactive
structure_smiles=C=C1CC[C@]2(OC1)O[C@H]1C[C@H]3[C@@H]4CC[C@H]5[C@H](O)[C@@H](O)C[C@@H](O[C@@H]6O[C@H](C)[C@H](O)[C@H](O)[C@H]6O)[C@]5(C)[C@H]4CC[C@]3(C)[C@H]1[C@@H]2C target_entity="Acinetobacter baumannii" result=inactive
structure_smiles=C=C1CC[C@]2(OC1)O[C@H]1C[C@H]3[C@@H]4CC[C@H]5[C@H](O)[C@H](O)C[C@@H](O[C@@H]6O[C@H](C)[C@H](O)[C@H](O)[C@H]6O)[C@]5(C)[C@H]4CC[C@]3(C)[C@H]1[C@@H]2C target_entity="Acinetobacter baumannii" result=inactive

----------
system: HaCaT; experiment: Cytotoxicity against human HaCaT cells assessed as reduction in cell viability incubated for 4 days by CellTiter 96 aqueous one solution assay; assay type: cell-based; conditions: 96 h
Recorded measurements of IC50, one per entry
readout-type: IC50 (µM)

structure_smiles=C[C@@H]1CC[C@]2(OC1)O[C@H]1C[C@H]3[C@@H]4CC[C@H]5C[C@H](O)C[C@@H](O[C@@H]6O[C@H](C)[C@H](O)[C@H](O)[C@H]6O)[C@]5(C)[C@H]4CC[C@]3(C)[C@H]1[C@@H]2C readout_type=IC50 unit_info=µM quantitative_result=36.5
structure_smiles=C[C@@H]1CC[C@]2(OC1)O[C@H]1C[C@H]3[C@@H]4CC[C@H]5[C@H](O)[C@@H](O)C[C@@H](O[C@@H]6O[C@H](C)[C@H](O)[C@H](O)[C@H]6O)[C@]5(C)[C@H]4CC[C@]3(C)[C@H]1[C@@H]2C readout_type=IC50 unit_info=µM quantitative_result=36.3
structure_smiles=COc1cccc2c1C(=O)c1c(O)c3c(c(O)c1C2=O)C[C@@](O)(C(=O)CO)C[C@@H]3O[C@H]1C[C@H](N)[C@H](O)[C@H](C)O1 readout_type=IC50 unit_info=µM quantitative_result=0.01
structure_smiles=C=C1CC[C@]2(OC1)O[C@H]1C[C@H]3[C@@H]4CC[C@H]5C[C@H](O)C[C@@H](O[C@@H]6O[C@H](C)[C@H](O)[C@H](O)[C@H]6O)[C@]5(C)[C@H]4CC[C@]3(C)[C@H]1[C@@H]2C readout_type=IC50 unit_info=µM quantitative_result=38.9
structure_smiles=C=C1CC[C@]2(OC1)O[C@H]1C[C@H]3[C@@H]4CC[C@H]5[C@H](O)[C@H](O)C[C@@H](O[C@@H]6O[C@H](C)[C@H](O)[C@H](O)[C@H]6O)[C@]5(C)[C@H]4CC[C@]3(C)[C@H]1[C@@H]2C readout_type=IC50 unit_info=µM quantitative_result=47.4
structure_smiles=C[C@@H]1CC[C@]2(OC1)O[C@H]1C[C@H]3[C@@H]4CC[C@H]5C[C@@H](O)C[C@@H](O[C@@H]6O[C@H](C)[C@H](O)[C@H](O)[C@H]6O)[C@]5(C)[C@H]4CC[C@]3(C)[C@H]1[C@@H]2C readout_type=IC50 unit_info=µM quantitative_result=18.2
structure_smiles=C[C@@H]1CC[C@]2(OC1)O[C@H]1C[C@H]3[C@@H]4CC[C@H]5[C@H](O)[C@H](O)C[C@@H](O[C@@H]6O[C@H](C)[C@H](O)[C@H](O)[C@H]6O)[C@]5(C)[C@H]4CC[C@]3(C)[C@H]1[C@@H]2C readout_type=IC50 unit_info=µM quantitative_result=74.9
structure_smiles=C=C1CC[C@]2(OC1)O[C@H]1C[C@H]3[C@@H]4CC[C@H]5C[C@@H](O)C[C@@H](O[C@@H]6O[C@H](C)[C@H](O)[C@H](O)[C@H]6O)[C@]5(C)[C@H]4CC[C@]3(C)[C@H]1[C@@H]2C readout_type=IC50 unit_info=µM quantitative_result=23.9
structure_smiles=C=C1CC[C@]2(OC1)O[C@H]1C[C@H]3[C@@H]4CC[C@H]5[C@H](O)[C@@H](O)C[C@@H](O[C@@H]6O[C@H](C)[C@H](O)[C@H](O)[C@H]6O)[C@]5(C)[C@H]4CC[C@]3(C)[C@H]1[C@@H]2C readout_type=IC50 unit_info=µM quantitative_result=42.1
